Measured values drawn from paper PMC7146381 for this set.

# Test Details: Cytotoxicity, Trypan blue assay on HUVECs
# Assay type: cell-based, Human
# Experimental Setup: human
Measured Metric: viability at 0.2 µM (%)
Provide the reading as a plain figure in %.

| Compound | viability at 0.2 µM / % |
| --- | --- |
| COc1cc(-c2[o+]c3cc(O)cc(O)c3cc2O[C@@H]2O[C@H](CO)[C@@H](O)[C@H](O)[C@H]2O)ccc1O [Peo-3-glc, peonidin-3-glucoside] | 100 |

Read the next record carefully.
Dear colleague, I am looking for the recorded viability at 0.2 µM of the following compound: COc1cc(-c2[o+]c3cc(O)cc(O)c3cc2O[C@@H]2O[C@H](CO)[C@@H](O)[C@H](O)[C@H]2O)cc(O)c1O [Pet-3-glc, petunidin-3-glucoside]
97

---

# Test Details: Cytotoxicity, MTT assay on HUVECs
# Assay type: cell-based
# Experimental Setup: human, 20 µM, with TNF-α stimulus, mean ± SEM, read-out: Percentage of cell viability, MTT assay
# Protocol: The cytotoxicity of the compounds was tested by Trypan blue and (3-(4,5-dimethylthiazol-2-yl)-2, 5-diphenyltetrazolium bromide (MTT) assay on HUVECs, according to the manufacturer’s instructions. Triton X-100 was used as positive control. Two independent experiments were performed in which each compound and concentration was tested in quadruplicate.
Measured Metric: viability at 20 µM (%)
Provide the reading as a plain figure in %.

| Molecule | Measured Metric | Test Value |
| --- | --- | --- |
| COc1cc(-c2[o+]c3cc(O)cc(O)c3cc2O[C@@H]2O[C@H](CO)[C@@H](O)[C@H](O)[C@H]2O)cc(O)c1O [Pet-3-glc, petunidin-3-glucoside] | viability at 20 µM | 94.4 |

Read the next record carefully.
Dear colleague, I am looking for the recorded viability at 20 µM of the following molecule: COc1cc(-c2[o+]c3cc(O)cc(O)c3cc2O[C@@H]2O[C@H](CO)[C@@H](O)[C@H](O)[C@H]2O)ccc1O [Peo-3-glc, peonidin-3-glucoside]
98.5

---

# Test Details: Cytotoxicity, Trypan blue assay on HUVECs
# Format: cell-based, Human
# Experimental Setup: human
# viability at 2 µM annotations
Provide the reading as a plain figure in %.

| Compound | Measured Metric | Test Value |
| --- | --- | --- |
| COc1cc(-c2[o+]c3cc(O)cc(O)c3cc2O[C@@H]2O[C@H](CO)[C@@H](O)[C@H](O)[C@H]2O)ccc1O [Peo-3-glc, peonidin-3-glucoside] | viability at 2 µM | 99.3 |

Read the next record carefully.
Dear colleague, I am looking for the recorded viability at 2 µM of the following compound: COc1cc(-c2[o+]c3cc(O)cc(O)c3cc2O[C@@H]2O[C@H](CO)[C@@H](O)[C@H](O)[C@H]2O)cc(O)c1O [Pet-3-glc, petunidin-3-glucoside]
97.7

---

# Test Details: Cytotoxicity, Trypan blue assay on HUVECs
# Format: cell-based, Human
# Experimental Setup: human
Measured Metric: viability at 0.05 µM (%)
Provide the reading as a plain figure in %.

Dear colleague, I am looking for the recorded viability at 0.05 µM of the following molecule: COc1cc(C(=O)O)ccc1O [VA, vanillic acid]
100

---

# Test Details: Cytotoxicity, Trypan blue assay on HUVECs
# Format: cell-based, Human
# Experimental Setup: human
Measured Metric: viability at 50 µM (%)
Provide the reading as a plain figure in %.

Dear colleague, I am looking for the recorded viability at 50 µM of the following compound: COc1cc(C(=O)O)ccc1O
99.3

---

# Test Details: Cytotoxicity, Trypan blue assay on HUVECs
# Type: cell-based, Human
# Experimental Setup: human
Measured Metric: viability at 0.02 µM (%)
Provide the reading as a plain figure in %.

| Compound | viability at 0.02 µM, % |
| --- | --- |
| COc1cc(-c2[o+]c3cc(O)cc(O)c3cc2O[C@@H]2O[C@H](CO)[C@@H](O)[C@H](O)[C@H]2O)ccc1O [Peo-3-glc, peonidin-3-glucoside] | 99.7 |

Read the next record carefully.
Dear colleague, I am looking for the recorded viability at 0.02 µM of the following compound: COc1cc(-c2[o+]c3cc(O)cc(O)c3cc2O[C@@H]2O[C@H](CO)[C@@H](O)[C@H](O)[C@H]2O)cc(O)c1O [Pet-3-glc, petunidin-3-glucoside]
110

---

# Test Details: Cytotoxicity, MTT assay on HUVECs
# Type: cell-based
# Experimental Setup: human, 50 µM, with TNF-α stimulus, mean ± SEM, read-out: Percentage of cell viability, MTT assay
Measured Metric: viability at 50 µM (%)
Provide the reading as a plain figure in %.

Dear colleague, I am looking for the recorded viability at 50 µM of the following molecule: COc1cc(C(=O)O)ccc1O
99.7
